# Tested on: activated hepatic stellate cells
# Assay procedure: Expression of activity indicator proteins (TGFβ1, α-SMA) in activated hepatic stellate cells, Western blot
# Format: cell-based, rat (Wistar)
# Assay conditions: 100 μM compound, 7 days, N = 3, corrected by β-actin
Listed molecules paired with reported 1 ng/mL TGFβ1-induced protein expression inhibition rate, α-SMA
Property label: 1 ng/mL TGFβ1-induced protein expression inhibition rate, α-SMA (%)

[
  {
    "Molecule": "N#C[C@@H]1CCCN1C(=O)CNC12CC3CC(CC(O)(C3)C1)C2",
    "Display unit": "%",
    "Val": "−56"
  },
  {
    "Molecule": "CC#CCn1c(N2CCC[C@@H](N)C2)nc2c1c(=O)n(Cc1nc(C)c3ccccc3n1)c(=O)n2C",
    "Display unit": "%",
    "Val": 159
  },
  {
    "Molecule": "N[C@@H](CC(=O)N1CCn2c(nnc2C(F)(F)F)C1)Cc1cc(F)c(F)cc1F [sitagliptin phosphate, sitagliptin]",
    "Display unit": "%",
    "Val": 46
  },
  {
    "Molecule": "CC(C)(C)OC[C@@H]1C(=O)NCCN1C(=O)C[C@H](N)Cc1cc(F)c(F)cc1F [tartrate of Compound 1]",
    "Display unit": "%",
    "Val": 25
  }
]

----------
# System: activated hepatic stellate cells
# Assay procedure: Expression of activity indicator proteins (TGFβ1, α-SMA) in activated hepatic stellate cells, Western blot
# Type: cell-based, rat (Wistar)
# Assay conditions: 100 μM compound, 7 days, N = 3, corrected by β-actin
The following compounds are listed with their measured 1 ng/mL TGFβ1-induced protein expression inhibition rate, TGFβ1 values.
Property label: 1 ng/mL TGFβ1-induced protein expression inhibition rate, TGFβ1

[
  {
    "Compound": "N#C[C@@H]1CCCN1C(=O)CNC12CC3CC(CC(O)(C3)C1)C2",
    "Val": "14 ± 32.8%"
  },
  {
    "Compound": "N[C@@H](CC(=O)N1CCn2c(nnc2C(F)(F)F)C1)Cc1cc(F)c(F)cc1F [sitagliptin phosphate, sitagliptin]",
    "Val": "−6 ± 51.9%"
  },
  {
    "Compound": "CC(C)(C)OC[C@@H]1C(=O)NCCN1C(=O)C[C@H](N)Cc1cc(F)c(F)cc1F [tartrate of Compound 1]",
    "Val": "78 ± 17.2%"
  },
  {
    "Compound": "CC#CCn1c(N2CCC[C@@H](N)C2)nc2c1c(=O)n(Cc1nc(C)c3ccccc3n1)c(=O)n2C",
    "Val": "64 ± 17.2%"
  }
]
